Tested on: Mycobacterium tuberculosis variant bovis
Experiment: Antitubercular activity against dormant stage of Mycobacterium bovis BCG ATCC 35743 assessed as growth inhibition at 3 ug/ml after 12 days by nitrate reductase assay relative to control
Assay type: functional
Conditions: BCG str. ATCC 35743, 288 h
Tick true if inhibition at 3 µg/mL is 30% or greater. Tick false if inhibition at 3 µg/mL is less than 30%.

Answered examples (2):
{"compound": "Cc1nc(C)c(-c2nn(-c3ccc(F)cc3)cc2/C=C/C(=O)c2cc(Cl)cc(Cl)c2O)s1", "discreteLabel": "false"}
{"compound": "Cc1ccc(O)c(C2=NNC(c3cn(-c4ccc(F)cc4)nc3-c3sc(C)nc3C)C2)c1 (stereo not drawn)", "discreteLabel": "true"}

We next turn to a different compound, shown below.
Problem: Does Cc1nc(C)c(-c2nn(-c3ccc(F)cc3)cc2C2CC(c3c(O)cc(C)c(Cl)c3C)=NN2)s1 (stereo not drawn) have a reported inhibition at 3 µg/mL of at least 30%?
Solution: true

* * *

Test system: Mycobacterium tuberculosis variant bovis
Test: Antitubercular activity against dormant stage of Mycobacterium bovis BCG ATCC 35743 assessed as growth inhibition at 30 ug/ml after 12 days by nitrate reductase assay relative to control
Type: functional
Details: BCG str. ATCC 35743, 288 h
The entries below come with measured inhibition at 30 µg/mL values attached.
Include the unit after the number when you answer.

{"compound": "Cc1ccc2oc(-c3cn(-c4ccc(F)cc4)nc3-c3sc(C)nc3C)cc(=O)c2c1", "inhibition at 30 µg/mL": "95.6%"}

Problem: Entry "Cc1nc(C)c(-c2nn(-c3ccc(F)cc3)cc2/C=C/C(=O)c2cc(Cl)ccc2O)s1" has what inhibition at 30 µg/mL?
Solution: 19.6%

Problem: Entry Cc1nc(C)c(-c2nn(-c3ccc(F)cc3)cc2C2CC(c3c(O)cc(C)c(Cl)c3C)=NN2)s1 (centres undefined) has what inhibition at 30 µg/mL?
Solution: 98.4%

Problem: Entry Cc1nc(C)c(-c2nn(-c3ccc(F)cc3)cc2C2CC(c3cc(Br)ccc3O)=NN2)s1 (centres undefined) has what inhibition at 30 µg/mL?
Solution: 99.5%

* * *

System: Mycobacterium tuberculosis variant bovis
Assay: Antitubercular activity against dormant stage of Mycobacterium bovis BCG ATCC 35743 assessed as growth inhibition at 3 ug/ml after 12 days by nitrate reductase assay relative to control
Assay type: functional
Conditions: BCG str. ATCC 35743, 288 h
Tick T if inhibition at 3 µg/mL is 8% or greater. Tick F if inhibition at 3 µg/mL is less than 8%.

{"compound": "Cc1nc(C)c(-c2nn(-c3ccc(F)cc3)cc2/C=C/C(=O)c2cc(Br)ccc2O)s1", "testSystem": "Mycobacterium tuberculosis variant bovis", "discreteLabel": "F"}
{"compound": "Cc1ccc(O)c(C(=O)/C=C/c2cn(-c3ccc(F)cc3)nc2-c2sc(C)nc2C)c1", "testSystem": "Mycobacterium tuberculosis variant bovis", "discreteLabel": "T"}
{"compound": "Cc1nc(C)c(-c2nn(-c3ccc(F)cc3)cc2/C=C/C(=O)c2cc(Cl)c(C)cc2O)s1", "testSystem": "Mycobacterium tuberculosis variant bovis", "discreteLabel": "T"}
{"compound": "Cc1nc(C)c(-c2nn(-c3ccc(F)cc3)cc2C2CC(c3cc(Cl)ccc3O)=NN2)s1 (stereo not given)", "testSystem": "Mycobacterium tuberculosis variant bovis", "discreteLabel": "T"}

We next turn to a different compound, shown below.
Problem: Does "Cc1nc(C)c(-c2nn(-c3ccc(F)cc3)cc2/C=C/C(=O)c2cc(Cl)ccc2O)s1" have a reported inhibition at 3 µg/mL of at least 8%?
Solution: F

* * *

System: Mycobacterium tuberculosis variant bovis
Test: Antitubercular activity against dormant stage of Mycobacterium bovis BCG ATCC 35743 assessed as growth inhibition at 3 ug/ml after 12 days by nitrate reductase assay relative to control
Assay type: functional
Details: BCG str. ATCC 35743, 288 h
The entries below come with measured inhibition at 3 µg/mL values attached.
Include the unit after the number when you answer.

Worked cases, answers included:
{"compound": "Cc1nc(C)c(-c2nn(-c3ccc(F)cc3)cc2-c2cc(=O)c3cc(Cl)c(C)cc3o2)s1", "assayValue": "99.7%"}
{"compound": "Cc1nc(C)c(-c2nn(-c3ccc(F)cc3)cc2C2CC(c3cc(Cl)c(C)cc3O)=NN2)s1 (stereo not given)", "assayValue": "69.6%"}
{"compound": "Cc1ccc2oc(-c3cn(-c4ccc(F)cc4)nc3-c3sc(C)nc3C)cc(=O)c2c1", "assayValue": "97.6%"}
{"compound": "Cc1nc(C)c(-c2nn(-c3ccc(F)cc3)cc2/C=C/C(=O)c2c(O)cc(C)c(Cl)c2C)s1", "assayValue": "8.39%"}

Then there is this compound:
Problem: Entry Cc1nc(C)c(-c2nn(-c3ccc(F)cc3)cc2C2CC(c3cc(Br)ccc3O)=NN2)s1 (stereo not given) has what inhibition at 3 µg/mL?
Solution: 96.2%
